ASSAYED_SYSTEM: CRBN (Homo sapiens)
RUN_DESCRIPTION: Competitive fluorescence anisotropy, CRBN purified in complex with DDB1
TEST_PARAMETERS: competitive fluorescence anisotropy, DDB1·CRBN; read-out: dissociation constant (KD) for CRBN
MEASURED_METRIC: Kd (nM)
Answers are plain numbers, in nM.

O=C1CCC(N2C(=O)c3ccc(N4CCOCC4)cc3C2=O)C(=O)N1 (centres unmarked) [PT-179]; 587

# input for lookup
Give the measured Kd of O=C1CCC(N2C(=O)c3cc(F)c(N4CCOCC4)cc3C2=O)C(=O)N1 (centres unmarked) [PK-1016] .
1010
